Measurement protocol: 3T3 NRU cytotoxicity/phototoxicity test
Assay type: cell-based, mouse
Assay context: mouse; cytotoxicity, no irradiation, BALB 3T3 clone A31, Neutral Red uptake; read-out: Mean CC50 ± SD, −Irr
Non-standard residues stand in square brackets, D forms with d. Residues, ends and D or L forms follow the SMILES beside them. Cit = NC(=O)NCCC[C@H](N)C(=O)O; Dab = NCC[C@H](N)C(=O)O
Attribute measured: CC50 (µM)
Respond numerically; units are µM and should not be typed.

CC[C@H](C)[C@H](NC(=O)CNC(=O)[C@H](CO)NC(=O)[C@H](CC(C)C)NC(=O)[C@@H](NC(=O)[C@H](CCCNC(N)=O)NC(=O)CNC(=O)[C@@H](NC(=O)[C@H](CC(C)C)NC(=O)[C@@H]1CCCN1C(=O)[C@H](CC(C)C)NC(=O)[C@@H](N)Cc1ccccc1)[C@@H](C)CC)C(C)C)C(=O)N[C@@H](CC(C)C)C(N)=O [DTCit, FLPLIG-Cit-VLSGIL-NH2] (H-FLPLIG[Cit]VLSGIL-NH2; N-terminus assumed) | 356

Lookup: Kindly indicate its recorded CC50. Item: CC[C@H](C)[C@H](NC(=O)CNC(=O)[C@H](CO)NC(=O)[C@H](CC(C)C)NC(=O)[C@@H](NC(=O)[C@H](CCN)NC(=O)CNC(=O)[C@@H](NC(=O)[C@H](CC(C)C)NC(=O)[C@@H]1CCCN1C(=O)[C@H](CC(C)C)NC(=O)[C@@H](N)Cc1ccccc1)[C@@H](C)CC)C(C)C)C(=O)N[C@@H](CC(C)C)C(N)=O [DTDab, FLPLIG-Dab-VLSGIL-NH2] (H-FLPLIG[Dab]VLSGIL-NH2; N-terminus assumed)
Found: 210

* * *

System: Candida albicans NBIMCC 74
Format: cell-based
Assay context: peptide 1.4 mg/mL, 20 µL per disc, 24 h
Non-standard residues stand in square brackets, D forms with d. Residues, ends and D or L forms follow the SMILES beside them. Cit = NC(=O)NCCC[C@H](N)C(=O)O
Attribute measured: Inhibition zone, C. albicans 74 (mm)
Respond numerically; units are mm and should not be typed.

Lookup: Kindly indicate its recorded Inhibition zone, C. albicans 74. Item: CC[C@H](C)[C@H](NC(=O)CNC(=O)[C@H](CO)NC(=O)[C@H](CC(C)C)NC(=O)[C@@H](NC(=O)[C@H](CCCNC(N)=O)NC(=O)CNC(=O)[C@@H](NC(=O)[C@H](CC(C)C)NC(=O)[C@@H]1CCCN1C(=O)[C@H](CC(C)C)NC(=O)[C@@H](N)Cc1ccccc1)[C@@H](C)CC)C(C)C)C(=O)N[C@@H](CC(C)C)C(N)=O [DTCit, FLPLIG-Cit-VLSGIL-NH2] (H-FLPLIG[Cit]VLSGIL-NH2; N-terminus assumed)
Found: 0.0

* * *

Test system: MDA-MB-231 cells
Measurement protocol: MTT antiproliferative assay, MDA-MB-231
Assay type: cell-based, human
Assay context: MTT, 72 h; read-out: Mean IC50 ± SD, MDA-MB-231
Non-standard residues stand in square brackets, D forms with d. Residues, ends and D or L forms follow the SMILES beside them. Dab = NCC[C@H](N)C(=O)O; Dap = NC[C@H](N)C(=O)O
# key: entry, value: pIC50
Reminder that pIC50 is minus the log10 of a molar concentration.

A selection of reference data follows.
CC[C@H](C)[C@H](NC(=O)CNC(=O)[C@H](CO)NC(=O)[C@H](CC(C)C)NC(=O)[C@@H](NC(=O)[C@H](CN)NC(=O)CNC(=O)[C@@H](NC(=O)[C@H](CC(C)C)NC(=O)[C@@H]1CCCN1C(=O)[C@H](CC(C)C)NC(=O)[C@@H](N)Cc1ccccc1)[C@@H](C)CC)C(C)C)C(=O)N[C@@H](CC(C)C)C(N)=O [DTDap, FLPLIG-Dap-VLSGIL-NH2] (H-FLPLIG[Dap]VLSGIL-NH2; N-terminus assumed) | 3.24
CC[C@H](C)[C@H](NC(=O)CNC(=O)[C@H](CO)NC(=O)[C@H](CC(C)C)NC(=O)[C@@H](NC(=O)[C@H](CCCNC(=N)N)NC(=O)CNC(=O)[C@@H](NC(=O)[C@H](CC(C)C)NC(=O)[C@@H]1CCCN1C(=O)[C@H](CC(C)C)NC(=O)[C@@H](N)Cc1ccccc1)[C@@H](C)CC)C(C)C)C(=O)N[C@@H](CC(C)C)C(N)=O [DTA, FLPLIG-R-VLSGIL-NH2, reference compound] (H-FLPLIGRVLSGIL-NH2) | 3.94

Below: the item to evaluate.
Lookup: Kindly indicate its recorded pIC50. Item: CC[C@H](C)[C@H](NC(=O)CNC(=O)[C@H](CO)NC(=O)[C@H](CC(C)C)NC(=O)[C@@H](NC(=O)[C@H](CCN)NC(=O)CNC(=O)[C@@H](NC(=O)[C@H](CC(C)C)NC(=O)[C@@H]1CCCN1C(=O)[C@H](CC(C)C)NC(=O)[C@@H](N)Cc1ccccc1)[C@@H](C)CC)C(C)C)C(=O)N[C@@H](CC(C)C)C(N)=O [DTDab, FLPLIG-Dab-VLSGIL-NH2] (H-FLPLIG[Dab]VLSGIL-NH2; N-terminus assumed)
Found: 3.76

* * *

# key: entry, value: IC50
Test system: MDA-MB-231 cells
Measurement protocol: MTT antiproliferative assay, MDA-MB-231
Type: cell-based, human
Assay context: MTT, 72 h; read-out: Mean IC50 ± SD, MDA-MB-231
Description: The cell lines BALB 3T3 (mouse embryonic fibroblasts) and MCF-12F (human breast epithelial cells) were used as models for healthy tissue. […] The antiproliferative activity testing was performed on cell cultures using the MTT-dye reduction assay. […] The formazan concentration can be determined spectrophotometrically. The measured absorption is an indicator of cell viability. […] The formazan absorption was registered using a microplate reader at λ = 540 nm. […]
Non-standard residues stand in square brackets, D forms with d. Residues, ends and D or L forms follow the SMILES beside them. Cit = NC(=O)NCCC[C@H](N)C(=O)O; Orn = NCCC[C@H](N)C(=O)O
Quick note: number first, unit second.

A selection of reference data follows.
CC[C@H](C)[C@H](NC(=O)CNC(=O)[C@H](CO)NC(=O)[C@H](CC(C)C)NC(=O)[C@@H](NC(=O)[C@H](CCCCN)NC(=O)CNC(=O)[C@@H](NC(=O)[C@H](CC(C)C)NC(=O)[C@@H]1CCCN1C(=O)[C@H](CC(C)C)NC(=O)[C@@H](N)Cc1ccccc1)[C@@H](C)CC)C(C)C)C(=O)N[C@@H](CC(C)C)C(N)=O [DTF, FLPLIG-K-VLSGIL-NH2, reference compound] (H-FLPLIGKVLSGIL-NH2) | 77 µM
CC[C@H](C)[C@H](NC(=O)CNC(=O)[C@H](CO)NC(=O)[C@H](CC(C)C)NC(=O)[C@@H](NC(=O)[C@H](CCCNC(N)=O)NC(=O)CNC(=O)[C@@H](NC(=O)[C@H](CC(C)C)NC(=O)[C@@H]1CCCN1C(=O)[C@H](CC(C)C)NC(=O)[C@@H](N)Cc1ccccc1)[C@@H](C)CC)C(C)C)C(=O)N[C@@H](CC(C)C)C(N)=O [DTCit, FLPLIG-Cit-VLSGIL-NH2] (H-FLPLIG[Cit]VLSGIL-NH2; N-terminus assumed) | 335 µM

Below: the item to evaluate.
Lookup: Kindly indicate its recorded IC50. Item: CC[C@H](C)[C@H](NC(=O)CNC(=O)[C@H](CO)NC(=O)[C@H](CC(C)C)NC(=O)[C@@H](NC(=O)[C@H](CCCN)NC(=O)CNC(=O)[C@@H](NC(=O)[C@H](CC(C)C)NC(=O)[C@@H]1CCCN1C(=O)[C@H](CC(C)C)NC(=O)[C@@H](N)Cc1ccccc1)[C@@H](C)CC)C(C)C)C(=O)N[C@@H](CC(C)C)C(N)=O [DTOrn, FLPLIG-Orn-VLSGIL-NH2] (H-FLPLIG[Orn]VLSGIL-NH2; N-terminus assumed)
Found: 303 µM

* * *

System: Candida albicans NBIMCC 74
Format: cell-based
Assay context: peptide 10 mg/mL, 20 µL per disc, 24 h
Non-standard residues stand in square brackets, D forms with d. Residues, ends and D or L forms follow the SMILES beside them. Cit = NC(=O)NCCC[C@H](N)C(=O)O
Attribute measured: Inhibition zone, C. albicans 74 (mm)
Respond numerically; units are mm and should not be typed.

Lookup: Kindly indicate its recorded Inhibition zone, C. albicans 74. Item: CC[C@H](C)[C@H](NC(=O)CNC(=O)[C@H](CO)NC(=O)[C@H](CC(C)C)NC(=O)[C@@H](NC(=O)[C@H](CCCNC(N)=O)NC(=O)CNC(=O)[C@@H](NC(=O)[C@H](CC(C)C)NC(=O)[C@@H]1CCCN1C(=O)[C@H](CC(C)C)NC(=O)[C@@H](N)Cc1ccccc1)[C@@H](C)CC)C(C)C)C(=O)N[C@@H](CC(C)C)C(N)=O [DTCit, FLPLIG-Cit-VLSGIL-NH2] (H-FLPLIG[Cit]VLSGIL-NH2; N-terminus assumed)
Found: 0.0
